target: T1, human ACVR2A (human, UniProt P27037 20-135, limits assumed); experiment: ELISA; note: test concentration or dose not given here
T1 construct: also called activin receptor, type II A
T1 sequence (P27037 20-135 limits assumed): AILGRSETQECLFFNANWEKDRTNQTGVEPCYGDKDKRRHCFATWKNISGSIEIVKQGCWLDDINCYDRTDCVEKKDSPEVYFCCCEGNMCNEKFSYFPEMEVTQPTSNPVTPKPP
# optical density annotations
The answer should read as a number with its unit following.

- BINDER: "369_A12 (antibody, V domains shown, Group II) VH: EVQLLESGGGLVQPGGSLRLSCAASGFTFSSYSMHWVRQAPGKGLEWVASINYNSGYTGYADSVKGRFTISRDNSKNTLYLQMNSLRAEDTAVYYCARAATWHDTHLDYWGQGTLVTVSS VL: DIQMTQSPSSLSASVGDRVTITCRASQSILTYLNWYQQKPGKAPKLLIYAATSRHSGVPSRFSGSGSGTDFTLTISSLQPEDFATYYCQQSYDLPLTFGGGTKVEIK"
  MEASURED_ENDPOINT: "optical density"
  REPORTED: "3.17 OD"

Now consider the entry below.
Ask: What does the data say about its optical density? Entry: 371_D07 (antibody, V domains shown, Group I) VH: EVQLLESGGGLVQPGGSLRLSCAASGFTFDDYGMNWVRQAPGKGLEWVANINYNGGYKGYADSVKGRFTISRDNSKNTLYLQMNSLRAEDTAVYYCARAANWHDTHLDYWGQGTLVTVSS VL: DIQMTQSPSSLSASVGDRVTITCRASQSILTYLNWYQQKPGKAPKLVIYAATSRASGVPSRFSGSGSGTDFTLTISSLQPEDFATYYCQQSYELPLTFGGGTKVEIK
Reply: 2.66 OD
